Assay: Antiplasmodial activity IC50 against Plasmodium falciparum K1CB1 DHFR double-mutant ([…])
PARAMETER MEASURED: IC50

>>> print(df.to_string())
                          compound_structure   result
 0     COc1cc(Cc2cnc(N)nc2N)ccc1OCCCc1ccccc1  11.7 µM
 1  CCc1nc(N)nc(N)c1-c1ccc(OCc2ccc(Cl)cc2Cl)c(OC)c1  > 50 µM
 2  Nc1ncc(Cc2ccc(OCCCOc3cc(Cl)c(Cl)cc3Cl)cc2)c(N)n1   3.5 µM
 3             CCCCCCc1nc(N)nc(N)c1-c1ccccc1   1.3 µM
 4     COC(=O)CCCc1nc(N)nc(N)c1-c1ccc(Cl)cc1  22.3 µM
 5       CCc1nc(N)nc(N)c1-c1ccc(C(C)(C)C)cc1   3.9 µM
 6  COc1cc(Cc2cnc(N)nc2N)ccc1OCc1cc(OC)c(OC)c(OC)c1  27.8 µM
 7  Nc1nc(N)c(-c2cccc(Cl)c2)c(CCCc2ccccc2)n1     3 µM
 8  Nc1nc(N)c(-c2cccc(Cl)c2)c(CCOCCCOc2ccccc2)n1   3.3 µM
 9  Nc1nc(N)c(-c2ccc(Cl)cc2)c(CCCc2ccccc2)n1  10.6 µM
10         COC(=O)CCCc1nc(N)nc(N)c1-c1ccccc1  31.3 µM
11          CCc1nc(N)nc(N)c1-c1ccc2c(c1)OCO2  21.5 µM
12           CCc1nc(N)nc(N)c1-c1ccc(Cl)cc1Cl  22.5 µM
13             CCc1nc(N)nc(N)c1-c1ccc(OC)cc1  > 25 µM
14             CCc1nc(N)nc(N)c1-c1ccc(Br)cc1    25 µM
15  COc1cc(COc2cc(Cc3cnc(N)nc3N)ccc2OCc2ccccc2)cc(OC)c1OC  17.5 µM
16              CCc1nc(N)nc(N)c1-c1ccc(C)cc1  12.7 µM
17      Nc1nc(N)c(-c2ccccc2)c(CCCc2ccccc2)n1   2.3 µM
18         CCc1nc(N)nc(N)c1-c1ccc(Cl)c(Cl)c1  17.4 µM
19             CCc1nc(N)nc(N)c1-c1cccc(Cl)c1   1.3 µM
20              Cc1nc(N)nc(N)c1-c1ccc(Cl)cc1  60.1 µM
21              Cc1nc(N)nc(N)c1-c1cccc(Cl)c1   4.8 µM
22   COc1cc(Cc2cnc(N)nc2N)cc(OC)c1OCc1ccccc1  30.1 µM
23               Nc1ncc(-c2ccc(Cl)cc2)c(N)n1  26.2 µM
24               Nc1ncc(-c2cccc(Cl)c2)c(N)n1   8.8 µM
25     COC(=O)CCCc1nc(N)nc(N)c1-c1cccc(Cl)c1  36.3 µM
26                   Nc1ncc(-c2ccccc2)c(N)n1  19.4 µM
27                 CCc1nc(N)nc(N)c1-c1ccccc1   3.3 µM
28                  Cc1nc(N)nc(N)c1-c1ccccc1  30.8 µM
29  COc1ccc(CCCc2nc(N)nc(N)c2-c2cccc(Cl)c2)cc1   2.7 µM
30      CCOc1c(Br)cc(-c2c(N)nc(N)nc2CC)cc1Br  17.4 µM
31      CCc1nc(N)nc(N)c1-c1ccc(-c2ccccc2)cc1   4.4 µM
